Attribution: ChEMBL document CHEMBL5154916

# test_details: Metabolic stability in Wistar rat liver microsomes assessed as intrinsic clearance at 2.5 uM
# Type: ADME, Microsome
# experimental_setup: read-out: CLH
value_type: microsomal CLint at 2.5 µM (µL/min/mg)

Check out these entries, answers already filled in.
Cc1nnn(-c2ccc(F)cc2)c1COc1ccc2c(n1)CCN(C(=O)C1CCCO1)C2 (stereo not drawn)
46
Cc1onc(-c2ccc(F)cc2)c1COc1ccc2c(n1)CCN(C(=O)c1ccno1)C2
245
Cc1onc(-c2ccc(F)cc2)c1COc1ccc2c(n1)CCN(C(=O)N1CCCC1)C2
279
Cc1onc(-c2ccc(F)cc2)c1COc1ccc2c(n1)CCN(C(=O)N(C)C)C2
356
Cc1onc(-c2ccc(F)cc2)c1COc1ccc2c(c1)OCC(=O)N2C
381

P. Cc1onc(-c2ccc(F)cc2)c1COc1ccc2c(n1)CCN(C(=O)CCS(C)(=O)=O)C2
Q. Cc1onc(-c2ccc(F)cc2)c1COc1ccc2c(n1)CCN(C)C2=O
R. CC(=O)N1Cc2ccc(OCc3c(C)nnn3-c3ccc(F)cc3)nc2C1
S. Cc1onc(-c2ccc(F)cc2)c1COc1ccc2c(n1)CCN(C(=O)N1CCOCC1)C2
Incoming: Which order do these items take when sorted by rising microsomal CLint at 2.5 µM? List them. Order the labels as requested and give them as your answer.
Outgoing: R, P, S, Q

1. CC(=O)N1CCc2nc(OCc3c(-c4ccc(F)cc4)noc3C)ccc2C1
2. Cc1onc(-c2ccc(F)cc2)c1COc1ccc2c(c1)CCNC2=O
Incoming: Select the item whose microsomal CLint at 2.5 µM value is smaller, choosing between 1 and 2 . Please reply using the label of the selected record.
Outgoing: 2
(2: 108 µL/min/mg, 1: 301 µL/min/mg)

P. Cc1onc(-c2ccc(F)cc2)c1COc1ccc2c(n1)CCN(C(=O)CS(C)(=O)=O)C2
Q. CCC(=O)N1CCc2nc(OCc3c(C)nnn3-c3ccc(F)cc3)ccc2C1
R. Cc1onc(-c2ccc(F)cc2)c1COc1ccc2c(n1)CCNC2=O
S. Cc1onc(-c2ccc(F)cc2)c1COc1ccc2c(n1)CCN(Cc1ccco1)C2=O
Incoming: Sequence the entries by microsomal CLint at 2.5 µM, beginning with the highest number. Order the labels as requested and give them as your answer.
Outgoing: S, R, Q, P
(S: 365 µL/min/mg, R: 227 µL/min/mg, Q: 92 µL/min/mg, P: 29 µL/min/mg)

a. Cc1onc(-c2ccc(F)cc2)c1COc1ccc2c(n1)CCN(C(=O)C1CCOCC1)C2
b. Cc1nnn(-c2ccc(F)cc2)c1COc1ccc2c(n1)CCN(C(=O)C1CCOC1)C2 (stereo not drawn)
Incoming: Select the item whose microsomal CLint at 2.5 µM value is smaller, choosing between a and b . Please reply using the label of the selected record.
Outgoing: b

P. Cc1onc(-c2ccc(F)cc2)c1COc1ccc2c(n1)CCN(C(=O)C1CC1)C2
Q. Cc1nnn(-c2ccc(F)cc2)c1COc1ccc2c(n1)CCN(C(=O)C1CC(=O)N(C)C1)C2 (stereo not drawn)
R. Cc1nnn(-c2ccc(F)cc2)c1COc1ccc2c(n1)CCN(C(=O)NC1CCOC1)C2 (stereo not drawn)
S. Cc1onc(-c2ccc(F)cc2)c1COc1ccc2c(n1)CCN(C(=O)C1CCOC1)C2 (stereo not drawn)
T. Cc1nnn(-c2ccc(F)cc2)c1COc1ccc2c(n1)CCN(CCS(C)(=O)=O)C2=O
Incoming: Sequence the entries by microsomal CLint at 2.5 µM, beginning with the highest number. Order the labels as requested and give them as your answer.
Outgoing: P, S, R, T, Q
(P: 388 µL/min/mg, S: 158 µL/min/mg, R: 39 µL/min/mg, T: 9 µL/min/mg, Q: 4 µL/min/mg)

P. CC(=O)N1CCc2nc(OCc3c(C)nnn3-c3ccc(F)cc3)ccc2C1
Q. Cc1onc(-c2ccc(F)cc2)c1COc1ccc2c(n1)CCN(CCS(C)(=O)=O)C2=O
R. Cc1onc(-c2ccc(F)cc2)c1COc1ccc2c(n1)CCN(C(=O)C1CCC1)C2
S. Cc1onc(-c2ccc(F)cc2)c1COc1ccc2c(n1)CCN(C(=O)C1CCCO1)C2 (stereo not drawn)
Incoming: Sequence the entries by microsomal CLint at 2.5 µM, beginning with the highest number. Order the labels as requested and give them as your answer.
Outgoing: R, S, Q, P
(R: 400 µL/min/mg, S: 210 µL/min/mg, Q: 89 µL/min/mg, P: 26 µL/min/mg)

P. Cc1onc(-c2ccc(F)cc2)c1COc1ccc2c(n1)CCN(C(=O)N1CCCCC1)C2
Q. Cc1onc(-c2ccc(F)cc2)c1COc1ccc2c(n1)CCN(C(=O)C1CCS(=O)(=O)CC1)C2
Incoming: For this pair, P and Q , which shows a numerically higher microsomal CLint at 2.5 µM? Please reply using the label of the selected record.
Outgoing: P

A. Cc1onc(-c2ccc(F)cc2)c1COc1ccc2c(n1)CCN(C1CCOC1)C2=O (stereo not drawn)
B. Cc1onc(-c2ccc(F)cc2)c1COc1ccc2c(n1)CCN(C(C)C)C2=O
Incoming: Select the item whose microsomal CLint at 2.5 µM value is smaller, choosing between A and B . Please reply using the label of the selected record.
Outgoing: A
(A: 139 µL/min/mg, B: 214 µL/min/mg)
